molecular target: N-type calcium channels (α1B+α2δ+β1b cDNA subunits) (Rattus norvegicus); construct: expressed in transfected cells; test: Whole cell patch clamp, tonic and frequency dependent block, N-type channels in HEK 293 (Example 5); format: cell-based; conditions: Table 4 summary, 0.2 Hz, N-type; unit not given in Table 4 (μM in Table 1); read-out: N (IC50 values)
Sequence (Q02294 whole entry): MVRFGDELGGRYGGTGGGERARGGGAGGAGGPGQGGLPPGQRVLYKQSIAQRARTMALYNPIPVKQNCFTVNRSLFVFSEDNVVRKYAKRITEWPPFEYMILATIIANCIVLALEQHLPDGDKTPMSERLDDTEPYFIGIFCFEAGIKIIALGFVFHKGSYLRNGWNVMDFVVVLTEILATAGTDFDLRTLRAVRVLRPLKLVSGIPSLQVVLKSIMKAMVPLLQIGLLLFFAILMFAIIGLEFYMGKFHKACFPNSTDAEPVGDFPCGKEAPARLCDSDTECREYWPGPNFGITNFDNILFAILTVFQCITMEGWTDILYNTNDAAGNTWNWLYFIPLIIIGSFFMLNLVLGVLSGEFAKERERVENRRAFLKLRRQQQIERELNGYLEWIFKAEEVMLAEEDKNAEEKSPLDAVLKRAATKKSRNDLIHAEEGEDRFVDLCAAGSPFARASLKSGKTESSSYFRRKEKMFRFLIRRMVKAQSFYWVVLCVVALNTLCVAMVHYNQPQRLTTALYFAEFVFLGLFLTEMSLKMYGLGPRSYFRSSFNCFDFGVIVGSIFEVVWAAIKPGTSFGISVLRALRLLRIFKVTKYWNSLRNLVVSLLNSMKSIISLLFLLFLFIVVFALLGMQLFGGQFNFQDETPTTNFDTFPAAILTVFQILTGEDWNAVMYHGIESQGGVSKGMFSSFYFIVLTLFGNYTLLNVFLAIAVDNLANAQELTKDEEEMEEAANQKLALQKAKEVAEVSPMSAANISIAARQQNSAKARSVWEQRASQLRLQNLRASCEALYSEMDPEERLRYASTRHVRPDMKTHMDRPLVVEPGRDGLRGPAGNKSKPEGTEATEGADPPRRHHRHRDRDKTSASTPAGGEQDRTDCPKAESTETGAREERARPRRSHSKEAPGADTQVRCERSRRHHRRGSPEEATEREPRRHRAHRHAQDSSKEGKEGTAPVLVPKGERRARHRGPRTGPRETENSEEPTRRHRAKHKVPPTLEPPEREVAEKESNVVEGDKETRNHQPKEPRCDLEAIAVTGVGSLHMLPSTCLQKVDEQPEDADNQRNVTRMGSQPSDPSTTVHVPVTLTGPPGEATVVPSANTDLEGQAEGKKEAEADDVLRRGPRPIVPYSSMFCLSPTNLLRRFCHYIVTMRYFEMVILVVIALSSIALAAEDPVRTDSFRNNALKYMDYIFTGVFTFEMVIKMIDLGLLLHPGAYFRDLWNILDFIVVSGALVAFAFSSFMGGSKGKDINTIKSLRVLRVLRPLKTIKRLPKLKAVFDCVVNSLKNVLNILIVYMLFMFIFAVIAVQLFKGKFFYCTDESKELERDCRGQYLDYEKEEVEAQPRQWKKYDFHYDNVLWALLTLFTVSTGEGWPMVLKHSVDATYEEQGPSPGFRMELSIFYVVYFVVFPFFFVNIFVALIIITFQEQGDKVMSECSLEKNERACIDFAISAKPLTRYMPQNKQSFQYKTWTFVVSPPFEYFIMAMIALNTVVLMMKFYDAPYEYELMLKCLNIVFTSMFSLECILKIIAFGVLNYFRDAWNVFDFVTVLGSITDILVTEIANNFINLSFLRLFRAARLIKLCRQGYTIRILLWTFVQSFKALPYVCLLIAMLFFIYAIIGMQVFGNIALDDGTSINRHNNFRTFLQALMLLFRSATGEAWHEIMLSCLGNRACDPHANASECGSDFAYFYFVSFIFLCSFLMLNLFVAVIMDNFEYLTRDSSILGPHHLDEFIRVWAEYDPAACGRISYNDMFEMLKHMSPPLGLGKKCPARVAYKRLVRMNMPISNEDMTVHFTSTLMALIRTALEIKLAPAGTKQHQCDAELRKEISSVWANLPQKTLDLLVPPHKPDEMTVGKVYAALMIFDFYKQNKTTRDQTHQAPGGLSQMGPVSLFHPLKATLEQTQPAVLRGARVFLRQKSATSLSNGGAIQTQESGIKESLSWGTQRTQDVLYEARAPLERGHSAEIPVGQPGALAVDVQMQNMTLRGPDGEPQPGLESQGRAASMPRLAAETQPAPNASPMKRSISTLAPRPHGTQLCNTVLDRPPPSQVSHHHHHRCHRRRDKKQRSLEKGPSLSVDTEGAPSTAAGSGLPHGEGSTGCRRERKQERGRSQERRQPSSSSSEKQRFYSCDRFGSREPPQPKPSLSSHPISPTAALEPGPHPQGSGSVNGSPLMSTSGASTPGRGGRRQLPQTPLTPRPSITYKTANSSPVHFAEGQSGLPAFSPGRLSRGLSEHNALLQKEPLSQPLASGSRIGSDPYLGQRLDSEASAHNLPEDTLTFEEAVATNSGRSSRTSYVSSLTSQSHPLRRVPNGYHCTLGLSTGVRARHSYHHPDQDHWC
Sequence (P54290 25-944 partner limits assumed): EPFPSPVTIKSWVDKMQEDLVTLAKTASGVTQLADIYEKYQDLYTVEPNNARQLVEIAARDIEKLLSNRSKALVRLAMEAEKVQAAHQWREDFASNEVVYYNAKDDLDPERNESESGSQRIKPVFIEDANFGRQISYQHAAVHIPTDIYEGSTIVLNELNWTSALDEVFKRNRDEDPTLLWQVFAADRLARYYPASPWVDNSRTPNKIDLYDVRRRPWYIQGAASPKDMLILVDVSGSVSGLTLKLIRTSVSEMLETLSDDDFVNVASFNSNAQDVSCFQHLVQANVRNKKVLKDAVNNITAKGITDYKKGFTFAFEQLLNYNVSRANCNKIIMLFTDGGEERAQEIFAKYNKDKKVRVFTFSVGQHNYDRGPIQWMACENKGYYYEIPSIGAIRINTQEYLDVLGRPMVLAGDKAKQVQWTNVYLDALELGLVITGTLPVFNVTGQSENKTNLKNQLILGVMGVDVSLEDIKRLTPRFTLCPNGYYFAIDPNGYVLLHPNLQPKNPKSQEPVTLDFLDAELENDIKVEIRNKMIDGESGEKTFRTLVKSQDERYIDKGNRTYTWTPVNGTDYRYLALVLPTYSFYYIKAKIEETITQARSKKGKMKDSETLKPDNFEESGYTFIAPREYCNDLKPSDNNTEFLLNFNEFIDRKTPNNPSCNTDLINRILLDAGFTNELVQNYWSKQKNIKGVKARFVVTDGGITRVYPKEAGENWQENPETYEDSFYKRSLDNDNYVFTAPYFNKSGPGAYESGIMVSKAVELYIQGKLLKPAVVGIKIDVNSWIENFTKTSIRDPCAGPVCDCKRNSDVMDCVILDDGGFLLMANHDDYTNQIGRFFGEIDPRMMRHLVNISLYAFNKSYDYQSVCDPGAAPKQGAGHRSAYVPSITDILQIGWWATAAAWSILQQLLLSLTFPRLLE
Sequence (P54290 945-1091 partner limits assumed): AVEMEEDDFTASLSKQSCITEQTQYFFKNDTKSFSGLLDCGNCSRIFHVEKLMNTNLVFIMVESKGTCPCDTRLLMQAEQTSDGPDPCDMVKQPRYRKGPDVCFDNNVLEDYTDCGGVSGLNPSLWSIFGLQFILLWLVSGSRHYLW
Sequence (P54283 whole entry partner): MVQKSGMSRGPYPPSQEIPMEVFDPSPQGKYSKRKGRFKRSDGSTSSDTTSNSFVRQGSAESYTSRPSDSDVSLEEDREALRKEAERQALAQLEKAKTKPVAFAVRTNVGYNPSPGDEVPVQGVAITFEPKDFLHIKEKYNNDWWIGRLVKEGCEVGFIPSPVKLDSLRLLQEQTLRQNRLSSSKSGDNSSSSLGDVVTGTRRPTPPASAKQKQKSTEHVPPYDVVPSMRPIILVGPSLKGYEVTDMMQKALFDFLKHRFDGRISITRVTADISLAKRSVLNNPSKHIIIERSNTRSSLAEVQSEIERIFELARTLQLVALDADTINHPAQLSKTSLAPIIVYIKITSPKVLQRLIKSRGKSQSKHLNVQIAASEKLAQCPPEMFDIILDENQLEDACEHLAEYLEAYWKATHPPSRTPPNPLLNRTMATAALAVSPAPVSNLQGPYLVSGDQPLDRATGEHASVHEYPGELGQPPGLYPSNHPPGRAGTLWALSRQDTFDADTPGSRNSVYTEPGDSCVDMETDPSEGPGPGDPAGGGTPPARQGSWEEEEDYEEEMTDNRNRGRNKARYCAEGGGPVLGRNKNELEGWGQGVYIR
measure.name: IC50 (µM)
Lab book: enter the figure in µM, no units written.

compound: COc1cc(CN2CCN(CCCCCC(c3ccc(F)cc3)c3ccc(F)cc3)CC2)cc(OC)c1OC
measure.name: IC50
recorded.measurement: 0.03

Any idea what its IC50 is? The compound is O=C(/C=C/c1ccc2c(c1)OCO2)N1CCN(C(=O)CCCCC(c2ccccc2)c2ccccc2)CC1 [SH-123B]
0.13

What measured IC50 goes with O=C(CCCCC(c1ccccc1)c1ccccc1)N1CCN(C/C=C/c2ccccc2)CC1 [MC-34D] ?
0.05

Would you mind telling me what IC50 value was observed for COc1ccc(CN2CCN(C(c3ccc(F)cc3)c3ccc(F)cc3)CC2)c(OC)c1OC [39-36-1 Lomerizine, Lomerizine, reference compound] ?
0.09
